B1: Proto-oncogene vav, residues 782 to 842; numbered along this chain, P15498 (parent)
chain: KYFGTAKARYDFCARDRSELSLKEGDIIKILNKKGQQGWWRGEIYGRVGWFPANYVEEDYS

# Variants of: B1
# TEST SUMMARY: abundance fitness (aPCA) (normalised: wild type 0, dead -1); higher = more abundant; growth selection in yeast, the domain comes from the species named
# RECORDED CONDITIONS: Homo sapiens
For each of the variants below, state its abundance fitness.
Answers are plain numbers.

Illustrative cases are given below, each with its answer.
G25M    -0.742
R17V    -0.014
F51V    -0.684
L31P    -0.988
V56N    -0.807

Hi there! I need abundance fitness for each item below, if you can.
1. K33S
2. I27Y
3. D26C
4. Y55V
5. G4F

Data returned:
1. -0.576
2. -0.294
3. -0.737
4. -0.074
5. -0.348

Hi there! I need abundance fitness for each item below, if you can.
1. G46H
2. I44C
3. E58Y
4. W39P

Data returned:
1: -0.672; 2: 0.042; 3: -0.065; 4: -0.807

Hi there! I need abundance fitness for each item below, if you can.
1. N32H
2. R41T
3. N54E
4. G42T
5. R9S
6. N54H
7. I30P
8. L31F

Data returned:
[-0.02, -0.633, 0.05, -0.825, -0.34, -0.185, -0.814, -0.46]
